Entries and their residual activity
# target-entity: Telomerase reverse transcriptase (Homo sapiens, UniProt O14746)
# Sequence (O14746 whole entry): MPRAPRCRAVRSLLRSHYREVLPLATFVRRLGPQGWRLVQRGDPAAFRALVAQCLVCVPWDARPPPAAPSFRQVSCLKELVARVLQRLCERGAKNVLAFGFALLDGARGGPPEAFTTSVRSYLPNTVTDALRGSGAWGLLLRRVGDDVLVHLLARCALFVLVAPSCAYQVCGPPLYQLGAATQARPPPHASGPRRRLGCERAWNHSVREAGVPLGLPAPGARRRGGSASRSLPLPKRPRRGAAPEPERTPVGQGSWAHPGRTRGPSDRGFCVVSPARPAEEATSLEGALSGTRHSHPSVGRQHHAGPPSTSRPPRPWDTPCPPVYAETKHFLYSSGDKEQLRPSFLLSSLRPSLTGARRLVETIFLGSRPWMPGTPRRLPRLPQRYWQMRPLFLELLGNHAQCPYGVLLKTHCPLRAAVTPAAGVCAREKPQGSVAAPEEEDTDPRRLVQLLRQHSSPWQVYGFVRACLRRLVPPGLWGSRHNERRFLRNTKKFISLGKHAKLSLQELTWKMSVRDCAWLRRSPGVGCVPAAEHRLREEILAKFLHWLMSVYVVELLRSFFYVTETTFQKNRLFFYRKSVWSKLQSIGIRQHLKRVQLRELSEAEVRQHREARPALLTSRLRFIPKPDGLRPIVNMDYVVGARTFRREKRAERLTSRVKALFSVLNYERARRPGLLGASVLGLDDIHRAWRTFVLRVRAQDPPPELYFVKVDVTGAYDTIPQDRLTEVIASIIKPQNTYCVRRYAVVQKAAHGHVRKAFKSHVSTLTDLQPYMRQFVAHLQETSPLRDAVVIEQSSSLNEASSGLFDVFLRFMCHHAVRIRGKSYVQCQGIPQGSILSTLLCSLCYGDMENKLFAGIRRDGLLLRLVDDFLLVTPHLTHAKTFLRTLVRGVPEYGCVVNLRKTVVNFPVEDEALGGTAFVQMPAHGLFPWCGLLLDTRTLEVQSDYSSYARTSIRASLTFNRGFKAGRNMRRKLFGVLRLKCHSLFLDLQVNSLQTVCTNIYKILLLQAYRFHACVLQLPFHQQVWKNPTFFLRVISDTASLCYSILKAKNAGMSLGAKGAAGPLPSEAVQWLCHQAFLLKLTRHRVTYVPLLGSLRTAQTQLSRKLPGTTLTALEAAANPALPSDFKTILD
# assay-text: Effect on human TERT expressed in H1299 cells at 1 uM after 24 hrs by SEAP assay relative to control
# value in %; strip the unit string

Some compounds with known residual activity results, for comparison:
{"structure-notation": "CCNCCC(=O)Nc1ccc2c(c1)C(=O)c1cc(NC(=O)CCNCC)ccc1C2=O", "unit-descriptor": "%", "residual activity": 68}
{"structure-notation": "O=C(Nc1ccc2c(c1)C(=O)c1cc(NC(=O)c3ccccc3)ccc1C2=O)c1ccccc1", "unit-descriptor": "%", "residual activity": 104}
{"structure-notation": "CCN(CC)CCC(=O)Nc1ccc2c(c1)C(=O)c1cc(NC(=O)CCN(CC)CC)ccc1C2=O", "unit-descriptor": "%", "residual activity": 76}
{"structure-notation": "O=C(CN1CCCCC1)Nc1ccc2c(c1)C(=O)c1cc(NC(=O)CN3CCCCC3)ccc1C2=O", "unit-descriptor": "%", "residual activity": 74}
{"structure-notation": "CN(C)CCC(=O)Nc1ccc2c(c1)C(=O)c1cc(NC(=O)CCN(C)C)ccc1C2=O", "unit-descriptor": "%", "residual activity": 5}
{"structure-notation": "O=C(CCCl)Nc1ccc2c(c1)C(=O)c1cc(NC(=O)CCCl)ccc1C2=O", "unit-descriptor": "%", "residual activity": 94}
{"structure-notation": "O=C(CCN1CCNCC1)Nc1ccc2c(c1)C(=O)c1cc(NC(=O)CCN3CCNCC3)ccc1C2=O", "unit-descriptor": "%", "residual activity": 75}
{"structure-notation": "O=C(CCCCl)Nc1ccc2c(c1)C(=O)c1cc(NC(=O)CCCCl)ccc1C2=O", "unit-descriptor": "%", "residual activity": 88}
{"structure-notation": "CCC(=O)Nc1ccc2c(c1)C(=O)c1cc(NC(=O)CC)ccc1C2=O", "unit-descriptor": "%", "residual activity": 90}

Would you kindly look at the next entry?
Entry `O=C(CN1CCNCC1)Nc1ccc2c(c1)C(=O)c1cc(NC(=O)CN3CCNCC3)ccc1C2=O` ; residual activity = 89

###

Entries and their growth percent at 10 µM
# Test system: ACHN
# assay-text: Cytotoxicity against human ACHN cells at 10 uM after 48 hrs by MTT assay
# Type: functional
# value in %; strip the unit string

Some molecules with known growth percent at 10 µM results, for comparison:
{"structure-notation": "CCN(CC)CCC(=O)Nc1ccc2c(c1)C(=O)c1cc(NC(=O)CCN(CC)CC)ccc1C2=O", "property-measured": "growth percent at 10 µM", "experimental-result": 11.1}
{"structure-notation": "CN(C)CC(=O)Nc1ccc2c(c1)C(=O)c1cc(NC(=O)CN(C)C)ccc1C2=O", "property-measured": "growth percent at 10 µM", "experimental-result": 66.4}
{"structure-notation": "CC(=O)Nc1ccc2c(c1)C(=O)c1cc(NC(C)=O)ccc1C2=O", "property-measured": "growth percent at 10 µM", "experimental-result": 96.9}
{"structure-notation": "O=C(CCN1CCCC1)Nc1ccc2c(c1)C(=O)c1cc(NC(=O)CCN3CCCC3)ccc1C2=O", "property-measured": "growth percent at 10 µM", "experimental-result": 29.6}

Param item: `O=C1c2ccc(NC(=O)C3CC3)cc2C(=O)c2cc(NC(=O)C3CC3)ccc21` ; param system: ACHN; output growth percent at 10 µM: 86.7
